target_of_assay: T1, human α-CGRP 1-37 (WT) (human, C-terminal amide; N-terminal biotin when captured on the SA chip; 125I-labelled in the radioligand assay)
T1 construct: also called α-human
T1 peptide: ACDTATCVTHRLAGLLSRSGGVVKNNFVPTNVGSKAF
assay: Biacore, 37°C, Fab over CGRP on SA chip
Method: Biacore assay for affinity determination. […] All Biacore assays were conducted in HBS-EP running buffer (10 mM HEPES pH 7.4, 150 mM NaCl, 3 mM EDTA, 0.005% v/v polysorbate P20). CGRP surfaces were prepared by diluting the N-biotinylated CGRP to a concentration of less than 0.001 mg/mL into HBS-EP buffer and injecting it across the SA sensor chip using variable contact times. […] Samples were typically injected for 1 minute at 100 μL/min and dissociation times of at least 10 minutes were allowed. […]
assay_readout: pKd
Give bare numbers, as −log10 of the molar value.

Lookup result for G1 variant M15 Fab (Fab, V domains shown, Fab; constant domains as m1) VH: EVQLVESGGGLVQPGGSLRLSCAASGFTFSNYWISWVRQAPGKGLEWVAEIRSESDASATHYAEAVKGRFTISRDNAKNSLYLQMNSLRAEDTAVYYCTPYFDYGLAIQNYWGQGTLVTVSS VL: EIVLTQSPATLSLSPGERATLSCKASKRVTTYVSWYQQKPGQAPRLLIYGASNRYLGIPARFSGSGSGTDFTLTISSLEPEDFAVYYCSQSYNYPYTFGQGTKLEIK ; measured pKd: 10.00
